metric: melting point (°C)

Examples from the recorded data:
| molecule | melting point [°C] |
| --- | --- |
| O=C(O)CN1CSC(=S)N(Cc2ccccc2)C1 | 152 |
| CCCCCCCCCCC1CCCC1 | -22 |
| Cc1cccc(Cl)c1C#N | 81 |
| O=c1[nH]cc(Cl)c(=O)[nH]1 | 300 |
| O=[N+]([O-])c1cc(F)cc(F)c1 | 17 |
| CC(=O)C1(O)C(O)CC2C3CCC4=CC(=O)CCC4(C)C3CCC21C (stereo not drawn) | 225 |

A: CCc1cccc(Cc2ccccc2)c1
B: CC(C)CNC(=O)N1CCNC1=O
Two entries are listed, A and B . Which one carries the higher melting point? Write down the label of the entry you select.
B
(B: 95.5 °C, A: -9 °C)

---

metric: melting point (°C)

Examples from the recorded data:
| molecule | result |
| --- | --- |
| CCCCCCCCCCCCC(C)CC (stereo not given) | -22 |
| COP(=S)(OC)Oc1cc(Cl)c(Br)cc1Cl | 53.5 |
| Cn1c(=O)on(-c2ccc(Cl)c(Cl)c2)c1=O | 123 |
| OCCN1CCCCC1C(c1ccccc1)c1ccccc1 (stereo not given) | 106 |
| COc1nc(NC(C)C)nc(NC(C)C)n1 | 91.5 |
| NC(=O)c1cnn(CCO)c1N | 239 |

I: c1ccc(CC2=NCCN2)cc1
II: NCCCCCCCCCCN
III: CC(=O)Oc1c(-c2ccccc2)[nH]c2cc(N)c(/C=C/c3ccccc3)cc12
IV: Cc1ccccc1NC(=O)c1cnc(C(C)(C)C)c(Cl)n1
Reorder: melting point, max to min. Answer format: the labels, ordered as requested.
III, I, IV, II

a: C[Si](C)(C)NC(=O)N[Si](C)(C)C
b: N#Cc1ccc(F)c(Br)c1
c: OC(C1=CC(=C(c2ccccn2)c2ccccn2)C=C1)(c1ccccn1)c1ccccn1
d: O=C(O)C(F)(F)C(F)(F)C(F)(F)C(F)(F)C(F)(F)C(F)F
e: C=Cc1cccc(CC)c1
Reorder: melting point, max to min. Answer format: the labels, ordered as requested.
a, c, b, d, e

P: COC(=O)c1ccc(C(=O)O)cc1[N+](=O)[O-]
Q: Cn1c(=O)c(C2=NNC(=O)C2=Cc2ccc(Cl)cc2Cl)c(O)c2ccccc21
R: COC(=O)c1ccc(C2(C)C=CC=CC=C2)cc1
Reorder: melting point, max to min. Answer format: the labels, ordered as requested.
Q, P, R
(Q: 280 °C, P: 175 °C, R: 61 °C)

---

metric: melting point (°C)

Examples from the recorded data:
| compound | melting point / °C |
| --- | --- |
| COc1ccc(-c2nnc3n2NC(c2ccco2)S3)cc1 (configuration not stated) | 161 |
| CC=CC(C)C(C)C=CC (configuration not stated) | -64.8 |

a: Nc1ccc(N)nc1
b: NNC(=O)c1cccc2cc[nH]c12
c: CCCCCCOC(=O)CCCCC
Please put the entries in order of rising melting point. Answer format: the labels, ordered as requested.
c, a, b

---

metric: melting point (°C)

| compound | result_unit | result |
| --- | --- | --- |
| CC1=NC(C)CNc2c1c(=O)n(-c1ccccc1)c1ccccc21 (stereo not given) | °C | 273 |

a: CC(C=CC=CC(C)=CC=CC(C)=CC=C1C(C)=CC(=O)CC1(C)C)=CC=CC(C)=CC=C1C(C)=CC(=O)CC1(C)C
b: CCOc1ccc(NC(=O)C(F)(F)C(F)(F)C(F)(F)C(F)(F)C(F)(F)C(F)(F)C(F)(F)C(F)(F)F)cc1
Given the two records a and b , choose the one whose melting point value is lower. Write down the label of the entry you select.
b

---

metric: melting point (°C)

Examples from the recorded data:
| compound | result |
| --- | --- |
| N#CCCO | -46 |
| O=C=Nc1ccc2sccc2c1 | 58 |
| CCCC(=O)N(C)C | -40 |

A: Brc1ccc2c3c(cccc13)CC2
B: Sc1nc(S)nc(S)n1
Two entries are listed, A and B . Which one carries the higher melting point? Write down the label of the entry you select.
B

---

metric: melting point (°C)

| molecule | melting point / °C |
| --- | --- |
| COC(=O)C1=C(C)NC(C)=C(C(=O)OC)C1c1ccccc1 | 198 |

a: COc1ccccc1CCC(=O)O
b: COc1ccc2c(c1)CCCN2
Given the two records a and b , choose the one whose melting point value is lower. Write down the label of the entry you select.
b

---

metric: melting point (°C)

1: COc1cccc(C)c1[N+](=O)[O-]
2: C=CC(=O)OC1CC2CCC1(C)C2(C)C (configuration not stated)
Two entries are listed, 1 and 2 . Which one carries the higher melting point? Write down the label of the entry you select.
2

---

metric: melting point (°C)

1: N#CC1(c2ccccc2)CCC(=O)CC1
2: CCCCC(=O)OC(=O)CCCC
3: Cc1ccc(C2CC(c3ccc4ccccc4c3)=NN2c2ccccc2)cc1 (configuration not stated)
Which order do these items take when sorted by rising melting point? List them. Answer format: the labels, ordered as requested.
2, 1, 3

---

metric: melting point (°C)

| compound | metric | result |
| --- | --- | --- |
| CC1=CCC2C(C)(C)CCCC2(C)C12CCC(C)(CC(=O)O)O2 (stereo unspecified) | melting point | 100 |
| CC(=O)OC1CC[C@H]2[C@@H]3CCC4CC(=O)CC[C@]4(C)[C@H]3CC[C@]12C (stereo partly specified) | melting point | 146 |
| O=C(O)Cc1cc(F)ccc1F | melting point | 125 |
| Cc1nn(C)c2sc(C(=O)O)cc12 | melting point | 260 |
| O=C(O)c1c(F)c(F)cc(F)c1F | melting point | 151 |
| CCCCCCCCCOC(=O)c1ccc(N)cc1 | melting point | 69 |
| COc1cc(OC)c(C(C)=O)c(OC)c1 | melting point | 103 |
| O=C(O)CCSSCCC(=O)O | melting point | 158 |
| Cc1ccc2cc(N(C)C)ccc2n1 | melting point | 101 |
| c1ccc2nncnc2c1 | melting point | 75.8 |

A: CC(C)Oc1ccccc1
B: C1=COCCC1
Given the two records A and B , choose the one whose melting point value is lower. Write down the label of the entry you select.
B
(B: -70 °C, A: -33 °C)

P: N#Cc1ccc(-c2cccs2)s1
Q: CCC#CCCCCCCCCCCCCCC
R: O=C(O)CCCCCCCCCCCCC1C=CCC1 (stereo unspecified)
S: COc1ccccc1N=Nc1ccccc1
Please put the entries in order of rising melting point. Answer format: the labels, ordered as requested.
Q, S, R, P
(Q: 2 °C, S: 41 °C, R: 68.5 °C, P: 100 °C)

I: O=C1c2ccccc2CC2C=Cc3ccccc3N12 (stereo unspecified)
II: NC(=S)c1ccc(F)cc1
Given the two records I and II , choose the one whose melting point value is lower. Write down the label of the entry you select.
I
(I: 91 °C, II: 150 °C)

1: Cc1cncc(C#N)c1
2: CC(=O)Nc1cc(NC(C)=O)c(C=Cc2ccccc2)c([N+](=O)[O-])c1C=Cc1ccccc1
Two entries are listed, 1 and 2 . Which one carries the higher melting point? Write down the label of the entry you select.
2

I: CCCCC(C)CC(O)C=CC1C(O)CC(=O)C1CCCCC=CC(=O)O (stereo unspecified)
II: COc1ccc(-n2nc(C(=O)c3cccs3)sc2=N)cc1
Two entries are listed, I and II . Which one carries the higher melting point? Write down the label of the entry you select.
II
(II: 164 °C, I: 97 °C)

I: CCOCCc1ccc(OCCNc2ncnc(CC)c2Cl)c(C)c1C
II: Cc1ccc(NC(=O)C(F)(F)C(F)(F)C(F)(F)C(F)(F)C(F)(F)C(F)(F)C(F)(F)C(F)(F)F)cc1C
III: C(#Cc1ccc(/N=C/c2ccccc2)cc1)c1ccc(/N=C/c2ccccc2)cc1
Reorder: melting point, max to min. Answer format: the labels, ordered as requested.
III, II, I
(III: 207 °C, II: 111 °C, I: 70 °C)

1: Cc1ccc(C(O)c2cc(C)ccc2O)cc1 (stereo unspecified)
2: O=C(Cc1ccccc1)c1ccc2c3c(ccc([N+](=O)[O-])c13)CC2
Two entries are listed, 1 and 2 . Which one carries the higher melting point? Write down the label of the entry you select.
2
(2: 189 °C, 1: 98 °C)

---

metric: melting point (°C)

Examples from the recorded data:
| compound | melting point / °C |
| --- | --- |
| COc1cc(OC)n2nc(S(=O)(=O)Nc3c(Cl)ccc(C)c3Cl)nc2n1 | 211 |
| O=C1c2ccccc2C(=O)c2c(Br)cccc21 | 186 |
| COP(=O)(OC)OC=C(Cl)Cl | -60 |
| Cc1cccc(C)c1NC(=O)CN1CCN(CCCC(c2ccc(F)cc2)c2ccc(F)cc2)CC1 | 159 |
| COc1c2occc2c(OC)c2c(=O)cc(C)oc12 | 155 |
| CCCCC1=NC2(CCCC2)C(=O)N1Cc1ccc(-c2ccccc2-c2nnn[nH]2)cc1 | 180 |
| O=CNC(Nc1ccc(Cl)c(Cl)c1)C(Cl)(Cl)Cl (stereo unspecified) | 135 |
| COC(=O)c1ccc(/C=C/c2ccc(C(=O)OC)cc2)cc1 | 235 |
| COc1cc(CCNC(=O)Cc2ccc(OC)c(OCc3ccccc3)c2)ccc1OCc1ccccc1 | 140 |
| CC(=O)c1ccc(NC(=O)C(C(F)(F)F)C(F)(F)F)cc1 | 174 |

A: CCCCC1C(=O)NN(c2ccccc2)C1=O (stereo unspecified)
B: O=P(c1ccccc1)(c1ccccc1)C1CCCCC1
Two entries are listed, A and B . Which one carries the higher melting point? Write down the label of the entry you select.
B

A: c1cc(-c2n[nH]c(-c3ccncc3)n2)ccn1
B: Cc1nc(-c2cnccn2)sc1C(=O)Cl
Two entries are listed, A and B . Which one carries the higher melting point? Write down the label of the entry you select.
A
(A: 242 °C, B: 101 °C)

P: Brc1cc(Br)ncn1
Q: Oc1ccccc1CNCc1ccccc1O
R: Brc1ccc2[nH]ccc2c1
Reorder: melting point, max to min. Answer format: the labels, ordered as requested.
Q, R, P

P: CCCC(C)(CO)CO
Q: COc1ccc([N+](=O)[O-])c(N)c1
R: Nc1cc(C(=O)O)ccc1C(=O)O
Please put the entries in order of rising melting point. Answer format: the labels, ordered as requested.
P, Q, R
